Source: PubChem BioAssay (NCI)

# Test system: SR leukemia
# METHOD DESCRIPTION: NCI tumour cell line growth inhibition, 48 h
Kindly supply the reported TGI values for the records listed here.

For O=c1oc2ccccc2nc1/C=C(\O)c1ccc(Cl)cc1 , what is its reported TGI?
> 100 µM

Which TGI is reported for this compound? COc1cc2oc(=O)ccc2cc1C(=O)CC(C)C
> 100 µM

Name the recorded TGI for CCOC(=O)c1c(N)n(-c2ccccc2)c(=O)n(-c2ccccc2)c1=O .
> 100 µM

Bench note: what TGI did CCOC(=O)c1nc2ccc(C(F)(F)F)cc2nc1NCc1ccc(OC)cc1 show?
> 100 µM

I would be grateful if you could share the reported TGI for CC1=CC(=O)CC(C)(C)C1/C=C/C(C)=C/C=C/C(C)=C/C=C/C=C(C)/C=C/C=C(C)/C=C/C1C(C)=CC(=O)CC1(C)C (stereo not given) .
> 100 µM

Entry CCC(C)[C@H]1O[C@]2(CC[C@@H]1C)C[C@@H]1C[C@@H](C/C=C(\C)[C@@H](OC3C[C@H](OC)C(O[C@H]4C[C@H](OC)[C@@H](O)[C@H](C)O4)[C@H](C)O3)[C@@H](C)/C=C/C=C3\CO[C@@H]4[C@H](O)C(C)=C[C@@H](C(=O)O1)[C@]34O)O2 (stereo not given in full) : reported TGI = ?
33.7 µM

Report TGI for CC(C)(C)OC(=O)n1c2ccccc2c2c(=O)nc(N3CCCCC3)sc21 please.
> 100 µM

// returns reported TGI for input CCN(CC)c1cccc2c1/C(=N/O)CCCC2
> 100 µM

Consider the compound shown here: O=C(O)CN1C=C(C(=O)c2cc3ccccc3n2S(=O)(=O)c2ccccc2)CCC1 What is its recorded TGI?
> 100 µM

For the compound CC1=Nc2ccccc2S/C1=C(/C)NNS(=O)(=O)c1ccc(C)cc1 , what TGI is on record?
> 100 µM

Reported TGI for CN(C)c1ccc(C=Nc2ccc(Oc3ccc(Cl)cc3)c(Cl)c2)cc1 : what is it?
32.9 µM

Recorded TGI of O=P12N(CCN1c1ccccc1)CCN2c1ccccc1 , please.
> 100 µM

Could you share which TGI value was measured for Cc1cc(O)c(=O)cc2c1C[C@H]1CC(C)(C)/C=C/C[C@]3(C)Oc4cc(=O)c(O)cc(C)c4C[C@H]3C[C@H](O)[C@@]1(C)O2 ?
0.591 µM

Which TGI value is on record for C=C=C(CC1CCCCC1=O)S(=O)(=O)c1ccccc1 (stereo not given) ?
> 6.03 µM

Which value of TGI has been reported for C=CCn1c(-c2ccc([N+](=O)[O-])cc2)cs/c1=N\C(P(=O)(O)O)P(=O)(O)O in the records?
> 100 µM

Any idea what TGI was measured for CCc1ccccc1N=NC(=O)NNc1ccccc1CC ?
57.1 µM

// TGI lookup, key: Cc1cc2c(c(C=Nc3ccccc3O)c1)OC1(C=C2)Oc2ccccc2C(=O)N1C (stereo not given)
48 µM

Which TGI reading was recorded for the compound CN(C)C=Nc1ccn(CCO)c(=O)n1 ?
> 100 µM

Which value of TGI has been reported for Oc1ccc(O)c(CNc2ccc(C(O)C(F)(F)F)cc2)c1 (stereo not given) in the records?
83.6 µM

Given the compound CC#CC(O)(C(=O)OCCCN(C)C)C1CCCCC1 (stereo not given) , what is its reported TGI?
> 100 µM

* * *

# Test system: LXFL 529 NSCLC
# METHOD DESCRIPTION: NCI tumour cell line growth inhibition, 48 h
I'd be grateful if you could share measured TGI for these entries.

Quick one: TGI of Cc1nc(-n2nc(-c3ccccc3)cc2-c2ccccc2)sc1C(=O)/C=C/c1ccc(/C=C/C(=O)c2sc(-n3nc(-c4ccccc4)cc3-c3ccccc3)nc2C)cc1 ?
67.3 µM

Fill in: TGI of Cn1cnc([N+](=O)[O-])c1Sc1nc(N)nc2c1ncn2C1OC(CO)C(O)C1O (stereo unspecified) is ___
> 100 µM

Reported TGI, compound COC(=O)C(Cc1cc(OC)c(OC)c(OC)c1)C(=O)OC : ____
> 320 µM

Looking for the measured TGI of Nc1nc2c3nc(Nc4ccccc4)sc3nc(=S)n2c2sc(Nc3ccccc3)nc12 , can you help?
29.4 µM

Tell me the measured TGI of O=c1ccc2nc3cc(Br)ccc3sc-2c1 , please.
> 100 µM

Dear colleague, I am looking for the recorded TGI of the following compound: Cc1cn(C2CC(O)C(COC(=O)c3ccccc3)O2)c(=O)[nH]c1=O (stereo unspecified)
> 100 µM

* * *

# Tested on: NCI-H460 lung
# METHOD DESCRIPTION: NCI tumour cell line growth inhibition, 48 h
Would you kindly list TGI for each of these molecules?

Sample CCN(CCCN(C)C)Cc1cc(I)cc(C)c1O — what was its TGI?
38 µM

Fill in the blank: the reported TGI of CS(=O)(=O)Nc1cncc(-c2ccc3ncnc(Nc4ccc(F)c(Cl)c4)c3c2)c1 is ____.
16 µM

Which value of TGI has been reported for COC(=O)CC(NC(=O)OCc1ccccc1)C(C(C)=O)C(=O)OCc1ccccc1 (stereo unspecified) in the records?
> 31.6 µM

Need TGI of CC1=CC(=O)CC(C)(C)C1/C=C/C(C)=C/C=C/C(C)=C/C=C/C=C(C)/C=C/C=C(C)/C=C/C1C(C)=CC(=O)CC1(C)C (stereo unspecified) , thanks.
> 100 µM

Which value of TGI has been reported for Clc1ccccc1/C=c1\nc(-c2ccccc2)n2c1nc1ccccc12 in the records?
> 100 µM

Entry CC(C)C1C(=O)N(c2c(F)c(F)c(F)c(F)c2F)C(=S)N1CCS(=O)c1ccccc1 (stereo unspecified) : reported TGI = ?
40.1 µM

Which measured TGI value corresponds to N#CC(C(=O)c1cccnc1Cl)c1nc2cc(C(F)(F)F)ccc2s1 (stereo unspecified) ?
> 100 µM

Given the entry c1ccc2sc(SCCSc3nc4ccccc4s3)nc2c1 , report its measured TGI.
> 100 µM

Dear colleague, I am looking for the recorded TGI of the following molecule: Cc1ccc(S(=O)(=O)OCCn2cnc3nc(NC(=O)c4ccccc4)[nH]c(=O)c32)cc1
> 100 µM

// lookup TGI for CCN(Cc1ccc(C)cc1)c1ccc(CO)c(Cl)c1
11.7 µM

Would you mind telling me what TGI value was observed for CC1(C)O[C@@H]([C@H](O)CO)[C@H](O)[C@@H](C2SCCCS2)O1 ?
> 100 µM

* * *

# Test system: UO-31 renal
# METHOD DESCRIPTION: NCI tumour cell line growth inhibition, 48 h
PROPERTY MEASURED: TGI

TGI of Nc1ncnc2c1sc1nc3ccccc3n12 on UO-31 renal?
> 100 µM

Lab request: please report TGI under test system UO-31 renal for N#CCCN(c1ccc(C=Nc2ccccc2)cc1)S(=O)(=O)c1ccccc1
> 100 µM

Hello, I am looking for reported TGI with UO-31 renal for C=C=C(CC1CCCCC1=O)S(=O)(=O)c1ccccc1 (centres undefined) . Could you help?
> 10 µM

# returns recorded TGI (system: UO-31 renal) for O=C(/C=C/c1cc(Cl)cc(Cl)c1O)c1cccc(O)c1
> 100 µM

* * *

# System: SNB-75 CNS
# METHOD DESCRIPTION: NCI tumour cell line growth inhibition, 48 h
Hi there, I'd appreciate the recorded TGI for every entry that follows.

TGI lookup needed for CCN(CC)c1ccc(/C=N/NC(=O)CSc2nc3ccccc3c(=O)n2CCc2ccc(S(N)(=O)=O)cc2)c(O)c1 , thanks.
> 100 µM

Query: TGI; subject: CC1=Nc2ccccc2S/C1=C(/C)NNS(=O)(=O)c1ccc(C)cc1
> 100 µM

Would you mind telling me what TGI value was observed for CN1C(=O)CCC1(O)C1C=CC=CC1 (stereo unspecified) ?
> 100 µM

Return reported TGI; argument: CC(NC(=O)/C(=C/c1ccccc1)NC(=O)c1ccccc1)C(=O)O (stereo unspecified)
> 100 µM

So what's the measured TGI for this one? Cn1cc(C(=O)c2ccccc2)c2ccccc2c1=O
> 100 µM

Look up TGI: Nc1c(C(=O)O)nnc2cc(Cl)c(Cl)cc12
> 100 µM

Fill blank: measured TGI of the compound CC#CC(O)(C(=O)OCCCN(C)C)C1CCCCC1 (stereo unspecified) is ____.
> 100 µM

Consider the compound N.N.N.N.N.[Co+3].[I-].[N-]=[N+]=[N-] and give its measured TGI.
> 100 µM

Which TGI value is on record for O=c1[nH]c2ccccc2c(=O)n1/N=C/c1ccc(O)cc1 ?
> 100 µM

Fill in: TGI of O=c1ccc2nc3cc(Br)ccc3sc-2c1 is ___
> 100 µM

Quick one: TGI for Nc1ncnc2c1sc1nc3ccccc3n12 ?
> 51.2 µM
